Species on record: Sus scrofa
measurement.description: Inhibition of COX2 synthesis in pig skin
Type: functional
parameter.measured: inhibition (INH)

Please review the following examples before continuing.
Ask: Field request: inhibition (INH) | item: C[C@@H]1O[C@@H](O[C@@H]2[C@@H](O)[C@H](OCCc3ccc(O)c(O)c3)O[C@H](CO)[C@H]2OC(=O)/C=C/c2ccc(O)c(O)c2)[C@H](O)[C@H](O)[C@H]1O [ACETOSIDE]
Result: <50%

Ask: Next record, please: CC(C)Cc1ccc(C(C)C(=O)O)cc1 (centres undefined) [IBUPROFEN]
Result: <50%

Ask: And then C[C@]1(OC(=O)/C=C/c2ccccc2)C[C@@H](O)[C@]2(O)C=CO[C@@H](O[C@@H]3O[C@H](CO)[C@@H](O)[C@H](O)[C@H]3O)[C@@H]21 [HARPAGOSIDE] , what is it?
Result: <50%

Note: attention shifts to another entry.
Ask: Give the measured inhibition (INH) of `C[C@]1(OC(=O)/C=C/c2ccc(O)cc2)C[C@@H](O)[C@]2(O)C=CO[C@@H](O[C@@H]3O[C@H](CO)[C@@H](O)[C@H](O)[C@H]3O)[C@@H]21` .
Result: <50%

Attribution: ChEMBL document CHEMBL1150270
